Measured values drawn from ChEMBL document CHEMBL1201862 for this set.

- Tested on: CCRF-CEM
- methodSummary: NCI tumour cell line growth inhibition, 48 h
Active and inactive are the calls of the source. Rule as the data show it: active = GI50 up to about 1.1 µM and inactive = higher.
quantityName: GI50

C=CCOC(=O)/C(=C\c1ccc(OC)c(OC)c1)c1ccc(OC)c(OC)c1 :: 30.8 µM (inactive)
COC(=O)C1=C(OC(=O)c2ccccc2)C(C(=O)OC)[C@@]2(O)[C@@H](C(=O)OC)[C@H](C)C[C@@H]1[C@@H]2C(=O)OC (some centres not stated) :: 8.89 µM (inactive)
CCOC(=O)c1c(C)n(-c2ccc(Cl)cc2)c2c1cc(O)c1[nH]c3c(c12)CCCC3 :: 32.4 µM (inactive)

// fetch GI50 given entry O=C1C(Cl)N(c2ccc(Cl)cc2Cl)C1c1c[nH]c2ccccc12 (configuration not stated)
> 100 µM (inactive)

Give recorded GI50. "COc1ccc(/C=N/n2c(Cc3ccccc3)n[nH]c2=O)c(OC)c1"
> 100 µM (inactive)

* * *

- Tested on: SF-268
- methodSummary: NCI tumour cell line growth inhibition, 48 h
Active and inactive are the calls of the source. No stated cut-off is given here; in the data, active = GI50 up to about 1.1 µM and inactive = higher.
Assign a class; possible classes are active, inactive

CC1C2=C(O)CC(C)(C)CC2=NC2=C1C(=O)CC(C)(C)C2 (stereo not given) :: inactive
CCOC(=O)c1c(C)n(-c2ccc(Cl)cc2)c2c1cc(O)c1[nH]c3c(c12)CCCC3 :: inactive
COc1cc(-c2ccc(/N=N/c3ccc4c(S(=O)(=O)O)cc(S(=O)(=O)O)c(N)c4c3O)c(OC)c2)ccc1/N=N/c1ccc2c(S(=O)(=O)O)cc(S(=O)(=O)O)c(N)c2c1O :: inactive

Per the records of this test, what outcome belongs to CCCCC[C@@H]1OCO[C@@]2(C)/C=C(C)\C=C/C(=O)O[C@H]([C@@H](C)[C@@H](O)[C@H](C)[C@@]3(O)C[C@@H](O[C@H]4C[C@@H](O)[C@H](O)[C@@H](C)O4)[C@H](C)[C@@H](C)O3)[C@@H](OC)/C=C\C=C(\C)C[C@@H]1[C@@H]2O (stereo in doubt) ?
active

Per the records of this test, what outcome belongs to "NC(=S)NN=C1Cc2ccccc2C1" ?
inactive

Record request — test call for Clc1c(Cl)c(Cl)c2nn(C3CCCO3)nc2c1Cl (stereo not given)
inactive

# lookup: test call for Cn1c(=O)c2c(ncn2CCNC(CO)C(O)c2ccc([N+](=O)[O-])cc2)n(C)c1=O (stereo not given)
inactive

For "O=S(=O)(c1ccccc1)c1nccs1" , what call appears in the results of this test?
inactive

Which outcome was entered for the compound COc1cc2c(cc1OC)C1Cc3sccc3CN1CC2 (stereo not given) in this test?
inactive

Answer briefly: the call reported for CC(Oc1ccc(Oc2cnc3ccc(Cl)cc3n2)cc1)C(=O)O (stereo not given) in this assay.
inactive

Name the outcome recorded for "CCc1oc2ccc(OC)c3c2c1C=CC=C3" in the assay.
inactive

Outcome logged for N=C(N)SC1c2ccccc2-c2cc([N+](=O)[O-])ccc21 (stereo not given) in this assay:
inactive

* * *

- System: DLD-1
- methodSummary: NCI tumour cell line growth inhibition, 48 h
The source made the active and inactive calls. No stated cut-off is given here; in the data, active = GI50 up to about 1.1 µM and inactive = higher.
quantityName: GI50

COc1cccc(NC(=O)N/C(=C/c2ccc(N(CCC#N)CCC#N)cc2)NC(=O)c2cc([N+](=O)[O-])ccc2Cl)c1 :: 89.5 µM (inactive)
COc1cc(C)c2c(c1C)OC(=O)c1c(C)c(Cl)c(O)c(C=O)c1O2 :: 11.6 µM (inactive)
CC1=C(c2cc(C(=O)Nc3cccc(C(F)(F)F)c3)ncn2)Sc2ccccc2N1 :: > 100 µM (inactive)
Cc1cccc(Cl)c1NC(N)=S :: 57.7 µM (inactive)
C=CC12CN(C)C3C4COC(CC41)C1(C(=O)Nc4ccccc41)C32 (centres undefined) :: 198 µM (inactive)

Specify measured GI50 for Cc1[nH]c(=O)[nH]c(=O)c1/C=C/C(=O)NC(CO)C[S+]([O-])Cc1ccccc1 (centres undefined) .
> 300 µM (inactive)

* * *

- Tested on: NCI-H460
- methodSummary: NCI tumour cell line growth inhibition, 48 h
Active and inactive are the calls of the source. No stated cut-off is given here; in the data, active = GI50 up to about 1.1 µM and inactive = higher.
quantityName: GI50

COc1cc(/C=C2/C(=O)N(C(=O)c3ccccc3O)N=C2C)cc(OC)c1OC :: 1.43 µM (inactive)

Quick one: give measured GI50 for "NC(=S)N/N=C(/CC(=O)c1ccccc1)C(=O)Nc1ccc(Cl)c(Cl)c1"
46.7 µM (inactive)

Specify reported GI50 for the compound shown: "O=C(Cn1cc(-c2ccccc2)nn1)NC1CCCC1"
> 100 µM (inactive)

Using known records, supply GI50 for "Cn1c(-c2ccccc2)c/c(=N\NS(C)(=O)=O)c2cc(S(=O)(=O)O)ccc21"
> 100 µM (inactive)

Report GI50, nothing else, for this compound: C=CCNC(=O)N(CCCCC(NC(C)=O)C(=O)NCc1ccccc1)Cc1ccccc1 (stereo not given)
> 100 µM (inactive)

* * *

- Tested on: HCC 2998
- methodSummary: NCI tumour cell line growth inhibition, 48 h
Active and inactive are the calls of the source. Cut-off read from the data, not from the text of the source: active = GI50 up to about 1.1 µM and inactive = higher.
quantityName: GI50

Reference set (2 entries):
CC(C)(C)C1(c2ccc(C3(c4ccccc4)Oc4ccccc4S3)[nH]2)Oc2ccccc2S1 (stereo not drawn) :: > 100 µM (inactive)
CC1(C)C2CCC(=O)C1C(OCc1ccccc1)C2 (stereo not drawn) :: > 100 µM (inactive)

Identify measured GI50 corresponding to "COC1=N[C@H](C(C)C)C(OC)=N[C@H]1Cc1ccc(C[C@@H]2N=C(OC)[C@@H](C(C)C)N=C2OC)s1"
34.2 µM (inactive)

* * *

In this section we review reported GI50 values for a set of molecules.
- Tested on: 786-0
- methodSummary: NCI tumour cell line growth inhibition, 48 h
Active and inactive are the calls of the source. Cut-off read from the data, not from the text of the source: active = GI50 up to about 1.1 µM and inactive = higher.

C=CCO[C@]1(CC=C)C(=O)C(=O)OC1C1COC(C)(C)O1 (stereo partly drawn) :: 35.1 µM (inactive)
CCc1oc2ccc(OC)c3c2c1C=CC=C3 :: > 100 µM (inactive)
COC1OC(=O)C(OC)C(OC)C1OC (stereo not drawn) :: > 100 µM (inactive)
O=C(/C=C/c1ccc2ccccc2c1)NCc1ccc(C(=O)NCc2ccccc2)cc1 :: 67.9 µM (inactive)
C[C@@H]1C(=O)C[C@H]2C(C)(C)CCC[C@]2(C)[C@@]1(O)CCc1ccoc1 :: > 100 µM (inactive)
C=CCOC(=O)/C(=C\c1ccc(OC)c(OC)c1)c1ccc(OC)c(OC)c1 :: 71.3 µM (inactive)

Report GI50, nothing else, for this molecule: "OCN(CO)c1ccc2c(c1)Cc1cc(F)ccc1-2"
30.1 µM (inactive)

Identify measured GI50 associated with "Oc1ccc(-c2nc(-c3cccnc3)c(-c3ccc(Cl)cc3)[nH]2)cc1O"
12 µM (inactive)

* * *

- Tested on: SNB-75
- methodSummary: NCI tumour cell line growth inhibition, 48 h
Activity calls are given as the source filed them. Rule as the data show it: active = GI50 up to about 1.1 µM and inactive = higher. Square brackets hold non-standard residues; d marks the D form. Peptide text beside a SMILES is read from it. * marks the point of attachment. Tyr(3-Br) = N[C@@H](Cc1ccc(O)c(Br)c1)C(=O)O; Boc = CC(C)(C)OC(=O)*
Known GI50 of a selection of molecules

CCOC(=O)CSc1[nH]c2nc(C)nc(Cl)c2c1C#N :: > 10 µM (inactive)
COC(=O)[C@H](Cc1ccc(O)c(Br)c1)NC(=O)[C@H](Cc1ccc(O)cc1)NC(=O)OC(C)(C)C (Boc-Tyr-[Tyr(3-Br)]-OMe) :: 92 µM (inactive)
CC1(C)C2CCC(=O)C1C(OCc1ccccc1)C2 (configuration not stated) :: > 100 µM (inactive)
CC[N+]1(C)CCC(O)(/C=C/c2ccc(Cl)cc2)C(C(=O)/C=C/c2ccc(Cl)cc2)C1 (configuration not stated) :: 11.3 µM (inactive)

Return GI50 (reported value) for this molecule: "CC(=O)Nc1sccc1S(=O)(=O)c1ccc(Cl)cc1"
55.6 µM (inactive)

* * *

- Test system: ACHN
- methodSummary: NCI tumour cell line growth inhibition, 48 h
Active and inactive are the calls of the source. No stated cut-off is given here; in the data, active = GI50 up to about 1.1 µM and inactive = higher.
quantityName: GI50

// solved cases for GI50 follow
COc1cc(/C=C2/SC(c3ccccc3)N(c3cc(Cl)ccc3Cl)C2=O)cc(OC)c1OC (stereo not drawn) :: > 100 µM (inactive)
COC1(CC[C@@H](C)COC2OC(CO)C(O)C(O)C2O)OC2C[C@H]3[C@@H]4CC[C@H]5C[C@@H](OC6OC(CO)C(OC7OC(CO)C(O)C(O)C7O)C(O)C6OC6OC(C)C(O)C(O)C6O)[C@H](O)C[C@]5(C)[C@H]4CC[C@]3(C)C2[C@@H]1C (stereo partly drawn) :: 1.77 µM (inactive)
CCOC(=O)C(C)(C)Oc1ccc2c(=O)cc(-c3ccc(Cl)cc3)oc2c1 :: > 100 µM (inactive)
NC(=S)NN=C1Cc2ccccc2C1 :: > 100 µM (inactive)
C#CCC[C@@H]1O[C@@]1(C)CC/C=C(\C)CC/C=C/C=O :: 50.1 µM (inactive)
O=C(NCCO)c1cc2c(cn1)[nH]c1ccccc12 :: > 100 µM (inactive)
COC([C@@H](OC(=O)c1ccccc1)[C@H](OC(=O)c1ccccc1)C(O)COC(=O)c1ccccc1)n1cc(C)c(=O)[nH]c1=O (stereo partly drawn) :: 31.6 µM (inactive)

Query compound follows.
Give GI50 for the following compound: "O=C(O)c1ccc(Nc2nc3ccccc3nc2C(=O)O)cc1"
> 100 µM (inactive)
